systemUnderTest: Platelet-derived growth factor receptor beta (Homo sapiens);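 note: reported value is the mean percent inhibition of the kinase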
reportedConditions: at 0.1 µM
measurementName: inhibition (%)

In [3]: df
Out[3]:
                                querysmiles  measurementname  valueobserved
0  NCc1ccc(-c2nc(-c3ccc(Cl)c(O)c3)c(-c3ccncc3)[nH]2)cc1       inhibition           7.07
1  COC(=O)Nc1nc2cc(Oc3cccc(NC(=O)Nc4cc(C(F)(F)F)ccc4F)c3)ccc2[nH]1       inhibition           11.4
2  CS(=O)(=O)CCNCc1ccc(-c2ccc3ncnc(Nc4ccc(OCc5ccccc5)c(Cl)c4)c3c2)o1       inhibition           2.08
3  Cc1nnc(-c2ccc(C)c(-c3ccc(C(=O)Nc4cccc(C#N)c4)cc3)c2)o1       inhibition           6.49
4  CC(=O)Nc1cccc(C#Cc2cncnc2Nc2ccc(OCc3cccc(F)c3)c(Cl)c2)n1       inhibition           6.88
5  Cc1ccc(NC(=O)c2ccnc(N3CCCC3)c2)cc1-c1ccc(C(=O)NCC2CC2)cc1       inhibition           6.34
6       Cn1cc(C=C2C(=O)Nc3cccnc32)c2ccccc21       inhibition           12.5
7  CCc1cccc(NC(=O)Nc2ccc(Oc3ccc4nc(NC(=O)OC)[nH]c4c3)cc2)c1       inhibition           40.4
8  COc1cc(C)c(NC(=O)CN(C)C)cc1Nc1nc(Nc2cccc(F)c2C(N)=O)c2cc[nH]c2n1       inhibition           2.12

* * *

In this section we review reported inhibition values for a set of compounds.
systemUnderTest: Mitogen-activated protein kinase 3 (Homo sapiens) (UniProt P27361);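 note: each value is a mean inhibition figure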
Sequence (P27361 whole entry): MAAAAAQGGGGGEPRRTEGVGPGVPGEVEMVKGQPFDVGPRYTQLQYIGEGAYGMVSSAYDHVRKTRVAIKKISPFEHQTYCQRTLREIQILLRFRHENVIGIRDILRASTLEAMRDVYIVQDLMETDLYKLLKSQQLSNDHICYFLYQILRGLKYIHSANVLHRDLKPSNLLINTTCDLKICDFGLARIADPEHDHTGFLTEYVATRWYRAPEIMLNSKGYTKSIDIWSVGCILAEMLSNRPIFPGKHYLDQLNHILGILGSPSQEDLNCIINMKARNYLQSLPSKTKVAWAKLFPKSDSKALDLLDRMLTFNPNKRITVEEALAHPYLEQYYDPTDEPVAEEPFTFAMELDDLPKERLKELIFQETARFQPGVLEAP
reportedConditions: at 0.1 µM
measurementName: inhibition (%)

                                 querysmiles                           systemundertest  readoutunits  valueobserved
 0  CCc1cccc(NC(=O)Nc2ccc(Oc3ccc4nc(NC(=O)OC)[nH]c4c3)cc2)c1  Mitogen-activated protein kinase 3 (Homo sapiens) (UniProt P27361)             %           2.25
 1  CCn1c(-c2nonc2N)nc2c(C#CC(C)(C)O)nc(OC[C@@H](N)c3ccccc3)cc21  Mitogen-activated protein kinase 3 (Homo sapiens) (UniProt P27361)             %          -3.17
 2  NCc1ccc(-c2nc(-c3ccc(Cl)c(O)c3)c(-c3ccncc3)[nH]2)cc1  Mitogen-activated protein kinase 3 (Homo sapiens) (UniProt P27361)             %           0.94
 3  COc1cc(C)c(NC(=O)CN(C)C)cc1Nc1nc(Nc2cccc(F)c2C(N)=O)c2cc[nH]c2n1  Mitogen-activated protein kinase 3 (Homo sapiens) (UniProt P27361)             %           2.47
 4  CS(=O)(=O)CCN(CC#N)Cc1ccc(-c2ccc3ncnc(Nc4ccc(OCc5cccc(F)c5)c(Cl)c4)c3c2)o1  Mitogen-activated protein kinase 3 (Homo sapiens) (UniProt P27361)             %           1.67
 5  CCn1c(-c2nonc2N)nc2cnc(Oc3cccc(NC(=O)c4ccc(OCCN5CCOCC5)cc4)c3)cc21  Mitogen-activated protein kinase 3 (Homo sapiens) (UniProt P27361)             %           2.43
 6  CS(=O)(=O)CCNCc1nc(-c2ccc3ncnc(Nc4ccc(F)c(Cl)c4)c3c2)cs1  Mitogen-activated protein kinase 3 (Homo sapiens) (UniProt P27361)             %           1.63
 7       Cn1cc(C=C2C(=O)Nc3cccnc32)c2ccccc21  Mitogen-activated protein kinase 3 (Homo sapiens) (UniProt P27361)             %           2.22
 8   COc1cc(C=NNc2ncnc3c2cnn3-c2ccccc2)ccc1O  Mitogen-activated protein kinase 3 (Homo sapiens) (UniProt P27361)             %           1.28
 9  Nc1ncnc2occ(-c3ccc(NC(=O)Nc4cc(C(F)(F)F)cc(C(F)(F)F)c4)cc3)c12  Mitogen-activated protein kinase 3 (Homo sapiens) (UniProt P27361)             %            0.6
10  Cc1cc(O)cc(C)c1/C=C/c1cncc(-c2nn[nH]n2)c1  Mitogen-activated protein kinase 3 (Homo sapiens) (UniProt P27361)             %           4.38
11  CC(=O)Nc1cccc(C#Cc2cncnc2Nc2ccc(OCc3cccc(F)c3)c(Cl)c2)n1  Mitogen-activated protein kinase 3 (Homo sapiens) (UniProt P27361)             %          -0.64
12  O=C1NC(=O)C(c2cccc(Cl)c2)=C1Nc1ccc(O)c(Cl)c1  Mitogen-activated protein kinase 3 (Homo sapiens) (UniProt P27361)             %           2.05
13  COc1cc2ncn(-c3cc(OCc4ccccc4Cl)c(C(N)=O)s3)c2cc1OC  Mitogen-activated protein kinase 3 (Homo sapiens) (UniProt P27361)             %          -0.15
14  CCCN1CCC=C(c2ccc(Nc3nc(Nc4ccccc4C(N)=O)c4cc[nH]c4n3)c(C)c2)C1  Mitogen-activated protein kinase 3 (Homo sapiens) (UniProt P27361)             %           6.39
15  NC(=O)c1cccc(Nc2nccc(Nc3cccc4[nH]ncc34)n2)c1  Mitogen-activated protein kinase 3 (Homo sapiens) (UniProt P27361)             %          -3.05
16  Nc1ncnc2occ(-c3ccc(NC(=O)Nc4cccc(C(F)(F)F)c4)cc3)c12  Mitogen-activated protein kinase 3 (Homo sapiens) (UniProt P27361)             %           4.22
17  COC(=O)Nc1nc2cc(Oc3cccc(NC(=O)Nc4cc(C(F)(F)F)ccc4F)c3)ccc2[nH]1  Mitogen-activated protein kinase 3 (Homo sapiens) (UniProt P27361)             %          -0.17
18  CCCN1CCC(Oc2cc(Nc3nc(Nc4cccc(F)c4C(N)=O)c4cc[nH]c4n3)c(OC)cc2Cl)CC1  Mitogen-activated protein kinase 3 (Homo sapiens) (UniProt P27361)             %           0.36
19    N#Cc1c(NC(=O)c2cccc3ccccc23)sc2c1CCCC2  Mitogen-activated protein kinase 3 (Homo sapiens) (UniProt P27361)             %          -0.53
